method: Inhibition of R17 coat protein binding to [33P]labeled R17 operator RNA
measured.parameter: IC50

Give the reported value of IC50 for this record: CC(=O)OC[C@H]1O[C@H](O[C@]2(COC(C)=O)O[C@H](COC(=O)/C=C/c3ccccc3)[C@@H](O)[C@@H]2OC(=O)/C=C/c2ccccc2)[C@H](OC(C)=O)[C@@H](O)[C@@H]1OC(C)=O [NIRURIDE] > 130 µM

###

method: Inhibition of HIV1 REV protein binding to HIV1 [P33]RRE RNA by liquid scintillation assay
Set-up: species or system Human immunodeficiency virus 1
measured.parameter: IC50 (µM)
// units = µM; emit number, no label

Look up IC50 of CC(=O)OC[C@H]1O[C@H](O[C@]2(COC(C)=O)O[C@H](COC(=O)/C=C/c3ccccc3)[C@@H](O)[C@@H]2OC(=O)/C=C/c2ccccc2)[C@H](OC(C)=O)[C@@H](O)[C@@H]1OC(C)=O [NIRURIDE] and report it. 3.3
